Tested on: K562
Assay: NCI tumour cell line growth inhibition, 48 h
Calls of active or inactive are those of the source. Rule as the data show it: active = GI50 up to about 1.1 µM and inactive = higher.
Outcome codes: active, inactive

# compound, classification
rows = [
    ("CC(C)COC(=O)c1ccc(/N=C\\c2ccc(/C=N/c3ccc(C(=O)OCC(C)C)cc3)cc2)cc1", "inactive"),
    ("COc1ccc2[nH]cc(C(=O)C(=O)NC34CC5CC(CC(C5)C3)C4)c2c1", "inactive"),
    ("CC(C)(C)c1ccc(C(O)c2ccc(C(C)(C)C)cc2)cc1", "inactive"),
    ("CN(C)CCCNc1c2ccccc2[n+]([O-])c2ccccc12", "inactive"),
    ("CN(Cc1cnc2nc(N)nc(N)c2n1)c1ccc(C(=O)N[C@@H](CCS(=O)(=O)O)C(=O)O)cc1", "inactive"),
    ("Cc1cccc(C)c1NC(=S)NC=C1C(=O)c2ccccc2C1=O", "inactive"),
    ("CCOc1cc2c(cc1O)CC[C@@H]1[C@@H]2CC[C@]2(C)C(N)CC[C@@H]12 (some centres not stated)", "inactive"),
    ("O=CNCNCCO", "inactive"),
    ("S=P1(N2CCCCC2)Oc2ccc3ccccc3c2-c2c(ccc3ccccc23)O1", "inactive"),
    ("COc1ccc(C2C3C(=O)C=CC(=O)C3[C@@H]2C)cc1OC (some centres not stated)", "inactive"),
    ("C[C@H](CCC1SC1(C)C)C1CCC2(C)C3=C(CC[C@]12C)[C@@]1(C)CC[C@H](O)C(C)(C)C1CC3 (some centres not stated)", "inactive"),
    ("COc1ccc(OC)c(N2CC(N)C2=O)c1 (configuration not stated)", "inactive"),
    ("Cc1nc2ccc(S(=O)(=O)Nc3nccs3)cc2c(=O)n1NS(=O)(=O)c1nccs1", "inactive"),
    ("CCCCCCc1cc2cc(C(=O)Nc3nc(C45CC6CC(CC(C6)C4)C5)cs3)c(=O)oc2cc1O", "inactive"),
    ("CCOc1ccc(-c2oc(/C=N/NS(=O)(=O)c3ccc(C)cc3)c([N+](=O)[O-])c2-c2ccc(OCC)cc2)cc1", "inactive"),
    ("CC(C)=CCC[C@@H](C)C1=C(Nc2ccccc2F)C(=O)C(C)=C(O)C1=O", "inactive"),
    ("Nc1nc(Cl)cc(OCC2(CO)CCCCC2)n1", "inactive"),
    ("O=C(CCc1cc(-c2ccccc2)nc(S)n1)N(Cc1ccccc1)Cc1ccccc1", "inactive"),
    ("CC(C)(Oc1ccccc1)C(=O)Sc1c(-c2ccccc2)c(=O)n(-c2ccccc2)c(=S)n1-c1ccccc1", "inactive"),
    ("CC12CCC(C(Nc3cc(C(F)(F)F)cc(C(F)(F)F)c3)C1=O)C2(C)C (configuration not stated)", "inactive"),
    ("C=CC[N+]12CN3CN(CN(C3)C1)C2", "inactive"),
    ("Fc1ccc(NC(=S)SCc2ccc3c(c2)OCO3)cc1F", "inactive"),
    ("COc1cc(CO)c(CC(=O)NCCCc2ccccc2)cc1OC", "inactive"),
    ("Cc1ccccc1N1C(=O)C2C=CC(n3[nH]c(=O)n(Cc4ccccc4)c3=O)CC2C1=O (configuration not stated)", "inactive"),
    ("COc1ccc(-c2c(C#N)c(O)n(C3OC(CO)C(O)C(O)C3O)c(=S)c2C#N)cc1 (configuration not stated)", "inactive"),
    ("COc1cc([C@@H]2c3cc4c(cc3[C@@H](OC(=O)c3ccccc3)C3COC(=O)[C@@H]32)OCO4)cc(OC)c1O (some centres not stated)", "active"),
    ("Oc1cc2c3c(c1)CCCN3CCC2", "inactive"),
    ("O=C1N=NC(=O)N1c1cc(C(F)(F)F)cc(C(F)(F)F)c1", "inactive"),
    ("C#CCN1C(=O)CN2C(Cl)(Cl)C2(c2ccccc2)c2cc(Cl)ccc21 (configuration not stated)", "inactive"),
    ("CN(C)CCO/N=C1/C=C2CC[C@H]3[C@@H]4CC[C@H](O)[C@@]4(C)CC[C@@H]3[C@@]2(C)CC1", "inactive"),
    ("COc1c(Br)cc(Br)c(OC)c1-c1[nH]c(Br)c(Br)c1Br", "inactive"),
    ("Nc1ncc(/C=N/O)c(NCC2(CO)CC(CCc3ccccc3)C2)n1 (configuration not stated)", "active"),
]

Provenance of the data: ChEMBL document CHEMBL1201862
